# Tested on: genetically sound-sensitive mice (audiogenic seizures)
# protocolDetails: audiogenic seizures test in sound-susceptible mice
# Assay type: in vivo
# measurementParameters: Mus musculus, ip, 1 h; dose producing 50% protection against clonic convulsions relative to control; intraperitoneally 60 minutes before induction of audiogenic seizures (90 dB, 10–20 kHz, 30 seconds); Probit Analysis; read-out: Clonic Convulsion (ED50)
Mark rule met for ED50 under 200 µmol/kg, rule not met if at or over.

Query :: Threshold test, ED50 < 200 µmol/kg: CC[C@H](NCCCC(=O)SC(C)C)C(N)=O [W]
Result :: rule not met

Query :: I'd appreciate it if you could check whether CCCCCCCCOC(=O)CCCN[C@@H](CC)C(N)=O [L] has ED50 smaller than 200 µmol/kg.
Result :: rule met

Query :: Here's an entry: CC[C@H](NCCCC(=O)OCc1ccccc1)C(N)=O [Compound N] . Is its ED50 below 200 µmol/kg?
Result :: rule not met

Query :: Record CC[C@H](NCCCC(=O)OCC(C)C)C(N)=O [M] : is its ED50 strictly below 200 µmol/kg?
Result :: rule not met

Query :: Is ED50 of CCCC(CCC)COC(=O)CCCN[C@@H](CC)C(N)=O [O] strictly below 200 µmol/kg?
Result :: rule met

====

Can you tell me log10 of ED50 for the items I'm about to list?
# System: genetically sound-sensitive mice (audiogenic seizures)
# protocolDetails: audiogenic seizures test in sound-susceptible mice
# Assay type: in vivo
# measurementParameters: Mus musculus, ip, 1 h; dose producing 50% protection against clonic convulsions relative to control; intraperitoneally 60 minutes before induction of audiogenic seizures (90 dB, 10–20 kHz, 30 seconds); Probit Analysis; read-out: Clonic Convulsion (ED50)
Note: values are log10 of ED50 expressed in µmol/kg.

// sample CC[C@H](NCCCC(=O)OC)C(N)=O [F] , its log10 of ED50 was 2.20

Reported log10 of ED50 ( CC[C@H](NCCCC(=O)OC1CCCC1)C(N)=O [J] ) = 2.53

The measured log10 of ED50 associated with CCOC(=O)CCCNC(CC)C(N)=O (racemic) [C] reads 2.51

The compound listed as CC[C@H](NCCCC(=O)OC(C)C)C(N)=O [G] shows log10 of ED50 equal to 2.18

Please fill in: log10 of ED50 reported for CCCCOC(=O)CCCN[C@@H](CC)C(N)=O [K] = 3.00

The measured log10 of ED50 associated with CCOC(=O)CCCN[C@@H](CC)C(N)=O [D] reads 1.83

Per the records, this compound ( CCC(NCCCC(=O)OC(C)(C)C)C(N)=O (centres unmarked) [H] ) has log10 of ED50 equal to 2.72

Sure, the documented log10 of ED50 for CC[C@H](NCCCC(=O)OCCC12CC3CC(CC(C3)C1)C2)C(N)=O [I] is 2.11
